From: patent US20250332173A1

Test system: HTT mRNA
Method notes: RT-qPCR splicing assay, HTT canonical junction (CJ) and alternative junction (AJ) mRNA
Format: cell-based, human
Assay setup: Homo sapiens, increase in HTT alternative junction (AJ) mRNA, RT-qPCR; read-out: HTT AJ AC50
Examples of molecules with documented AC50 follow.

Example results:
Cc1c(O)c(-c2ncc3c(=O)n([C@H]4C[C@H]5COC[C@@H](C4)N5)ccc3n2)cc2cn(C)nc12 : 1 to 10 µM
Cc1cn2cc(-c3ccc4c(c3)CCN(C3CCNCC3)C4=O)cc(C(F)(F)F)c2n1 : > 10 µM
C[C@H]1C[C@@H](n2ccc3nc(-c4cc(F)c5nn(C)cc5c4)ncc3c2=O)CCN1 : 0.1 to 1 µM
Cc1cc(-c2cc(F)c3c(=O)n(C4CCNC5(CC5)C4)ccc3c2)cc2cn(C)nc12 (centres unmarked) : < 0.1 µM
Cc1cn2nc(-c3cc(F)c4c(=O)n(C5CCNC6(CC6)C5)cnc4c3)cc(C)c2n1 (centres unmarked) : < 0.1 µM

Qu. Return reported AC50; argument: Cc1cn2cc(-c3cc4ncn(C5CCNCC5)c(=O)c4cc3F)cc(F)c2n1
Ans. 0.1 to 1 µM

Qu. Return reported AC50; argument: Cc1cn2cc(-c3cc(F)c4c(=O)n(C5CCNC6(CC6)C5)ccc4c3)cc(Cl)c2n1 (centres unmarked)
Ans. < 0.1 µM

Qu. Return reported AC50; argument: Cc1cn2cc(-c3ccc4nc(NC5CCNCC5)[nH]c(=O)c4c3)cc(F)c2n1
Ans. > 10 µM

###

Examples of compounds with documented GI50 follow.
Tested on: K562 (human chronic myelogenous leukemia) cells
Method notes: Cell Titer Glo 2.0 cell viability assay
Format: cell-based
Assay setup: Homo sapiens, K562, 72 h, K562 cells, 72 hours, Cell Titer Glo 2.0; read-out: K562 GI50

Example results:
CNc1cc(-c2cc(C)c3nc(C)cn3n2)cc2ccn([C@H]3CCNC3)c(=O)c12 : 1000 to 10000 nM
COc1c(-c2cc3ccn(C4CCNCC4)c(=O)c3cn2)cc2cn(C)nc2c1F : 1000 to 10000 nM
Cc1cc(-c2cc(O)c3c(=O)n(C4CCNC5(CC5)C4)ncc3c2)cc2cn(C)nc12 (centres unmarked) : 1000 to 10000 nM
Cc1cn2nc(-c3ccc4c(=O)n(C5CCNCC5)ncc4c3)nc2c(C)n1 : 100 to 1000 nM
Cc1cn2nc(-c3ccc4c(=O)n([C@H]5CCNC6(CC6)C5)cnc4c3)cc(C)c2n1 : 1000 to 10000 nM
Cc1cc(-c2ccc3c(=O)n(N4CCN(C)CC4)cnc3c2)cc2cn(C)nc12 : 1000 to 10000 nM
Cc1cn2nc(-c3ccc4c(=O)n(C5CCNC6(CC6)C5)ncc4c3)cc(C)c2n1 (centres unmarked) : 100 to 1000 nM
Cc1cn2cc(-c3ccc4c(=O)n(C5CCNC5)cc(C)c4c3)cc(C#N)c2n1 (centres unmarked) : > 10000 nM
Cc1cn2nc(-c3ccc4c(=O)n(C5CCN(CC6CC6)C6(CC6)C5)ncc4n3)cc(C)c2n1 (centres unmarked) : 100 to 1000 nM
Cc1cn2cc(-c3cc(F)c4c(=O)n(C5CCNC6(CC6)C5)ccc4c3)cc(C)c2n1 (centres unmarked) : < 100 nM

Qu. Return reported GI50; argument: Cc1cn2cc(-c3ccc4c(=O)n(C5CCNCC5)ccc4n3)c(O)cc2n1
Ans. 1000 to 10000 nM

Qu. Return reported GI50; argument: Cc1c(O)c(-c2ncc3c(=O)n(N4CCNCC4)ccc3n2)cc2cn(C)nc12
Ans. 100 to 1000 nM

Qu. Return reported GI50; argument: Cc1c(O)c(-c2ccc3c(=O)n([C@H]4CCNC5(CC5)C4)ccc3n2)cc2cn(C)nc12
Ans. < 100 nM

Qu. Return reported GI50; argument: Cc1cn2nc(-c3ccc4c(=O)n(C5CCNCC5)cnc4c3)cc(C)c2n1
Ans. 100 to 1000 nM

###

Examples of compounds with documented pIC50 follow.
Tested on: MYB
Method notes: HiBiT protein abundance assay, MYB HiBiT K562 cell line
Format: cell-based, human
Assay setup: HiBiT K562 cell line, 24 hours, top dose 10 μM; read-out: Effect on protein abundance, MYB (IC50 category)
pIC50: −log10 of the molar value.

Example results:
Cc1cn2cc(-c3ccc4c(=O)n(C5CCNCC5)ncc4c3)cc(C)c2n1 [Compound 257] : 6.00 to 7.00
Cn1cc2cc(-c3ncc4c(=O)n(C5CCNCC5)ccc4n3)c(O)c(F)c2n1 [Compound 1123] : > 7.00
Cc1cn2c(n1)CCC(c1ccc3c(=O)n(C4CCNCC4)ccc3c1)C2 (stereo not drawn) [Compound 453] : < 5.00
Cc1c(O)c(-c2ncc3c(=O)n(C4C[C@H]5C[C@@H]4CN5)ccc3n2)cc2cn(C)nc12 (stereo in doubt) [Compound 1444] : 6.00 to 7.00

Qu. Tell me reported pIC50 for Cc1cn2cc(-c3cc4ccn(C5CCNCC5)c(=O)c4cn3)nc(C)c2n1 [Compound 1205] , tested with MYB.
Ans. 6.00 to 7.00

Qu. Tell me reported pIC50 for Cc1cn2cc(-c3cc(O)c4c(=O)n(C5CCNC6(CC6)C5)ncc4c3)cc(Cl)c2n1 (stereo not drawn) [Compound 557] , tested with MYB.
Ans. 6.00 to 7.00

Qu. Tell me reported pIC50 for Cc1cn2nc(-n3cnc4cc(N5CCNCC5)ccc4c3=O)cc(C)c2n1 [Compound 241] , tested with MYB.
Ans. 5.00 to 6.00

Qu. Tell me reported pIC50 for Cc1cc(-c2cc3ccn(C4CCN(CCO)CC4)c(=O)c3cn2)cc2cn(C)nc12 [Compound 1210] , tested with MYB.
Ans. 5.00 to 6.00

Qu. Tell me reported pIC50 for Cc1cn2cc(-c3ncc4c(=O)n(C5CCNCC5)ccc4n3)c(O)c(C)c2n1 [Compound 1225] , tested with MYB.
Ans. 6.00 to 7.00

Qu. Tell me reported pIC50 for Cc1cn2cc(-c3cc(F)c4c(=O)n(C5CCNC6(CC6)C5)ccc4c3)cc(C)c2n1 (stereo not drawn) [Compound 416] , tested with MYB.
Ans. > 7.00

Qu. Tell me reported pIC50 for Cc1cn2cc(-c3ccc4c(=O)n(C5CCNCC5)ncc4c3)cc(C(F)(F)F)c2n1 [Compound 262] , tested with MYB.
Ans. 6.00 to 7.00

Qu. Tell me reported pIC50 for Cc1c(O)c(-c2ncc3c(=O)n(C45CCC(N)(CC4)C5)ccc3n2)cc2cn(C)nc12 [Compound 1428] , tested with MYB.
Ans. > 7.00

Qu. Tell me reported pIC50 for O=C1c2ccc(-c3cn[nH]c3)cc2CCN1C1CCNCC1 [Compound 220] , tested with MYB.
Ans. < 5.00

Qu. Tell me reported pIC50 for Cc1cn2cc(-c3ncc4c(=O)n(C5CCNC5)ccc4n3)cc(F)c2n1 (stereo not drawn) [Compound 1215] , tested with MYB.
Ans. 6.00 to 7.00

Qu. Tell me reported pIC50 for Cc1cn2nc(-c3ccc4c(c3)CCN(C3CCN(C)CC3)C4=O)cc(C)c2n1 [Compound 268] , tested with MYB.
Ans. 6.00 to 7.00

###

System: HTT mRNA
Method notes: RT-qPCR splicing assay, HTT canonical junction (CJ) and alternative junction (AJ) mRNA
Format: cell-based, human
Assay setup: Homo sapiens; canonical junction qPCR panel, Table 5; read-out: HTT (decrease in CJ mRNA levels, IC50)
Examples of compounds with documented IC50 follow.

Example results:
Cc1cn2cc(-c3ncc4c(=O)n(C5CCNCC5)ccc4n3)cc(C#N)c2n1 : 0.1 to 1 µM
Cc1c(O)c(-c2nc(C)c3c(=O)n([C@@H]4CCNC5(CC5)C4)ccc3n2)cc2cn(C)nc12 : 0.1 to 1 µM

Note: attention shifts to another entry.
Qu. Return reported IC50; argument: Cc1c(O)c(-c2ncc3c(=O)n([C@H]4CC[C@H](N)C4)ccc3n2)cc2cn(C)nc12
Ans. 0.1 to 1 µM

###

Test system: K562 (human chronic myelogenous leukemia) cells
Method notes: Cell Titer Glo 2.0 cell viability assay
Type: cell-based
Assay setup: Homo sapiens, K562, 72 h, K562 cells, 72 hours, Cell Titer Glo 2.0; read-out: K562 GI50
Examples of compounds with documented GI50 follow.

Qu. Return reported GI50; argument: Cc1cn2cc(-c3cc(F)c4c(=O)n(C5CCNCC5)ccc4c3)cc(C#N)c2n1 [Compound 383]
Ans. 0.1 to 1 µM

Qu. Return reported GI50; argument: Cc1cn2cc(-c3ccc4c(=O)n(C5CCNCC5)ncc4c3)cc(Cl)c2n1 [Compound 256]
Ans. < 0.1 µM

Qu. Return reported GI50; argument: Cc1cn2nc(-c3ccc4c(c3F)CCN(C3CCNCC3)C4=O)cc(C)c2n1 [Compound 188]
Ans. 1 to 10 µM

Qu. Return reported GI50; argument: Cc1cn2nc(-c3cc4ccn(C5CCNCC5)c(=O)c4cn3)cc(C)c2n1 [Compound 1198]
Ans. 0.1 to 1 µM

Qu. Return reported GI50; argument: Cn1cc2cc(-c3ccc4c(=O)n(C5CCNCC5)ncc4c3)cc(F)c2n1 [Compound 249]
Ans. 1 to 10 µM

Qu. Return reported GI50; argument: Cc1cn2nc(-c3ccc4c(=O)n([C@@H]5CCNC6(CC6)C5)ncc4n3)cc2c(C)n1 [Compound 1548]
Ans. 0.1 to 1 µM

Qu. Return reported GI50; argument: Cc1c(O)c(-c2ccc3c(=O)n(C4CCNC4)cc(C)c3n2)cc2cn(C)nc12 (stereo not drawn) [Compound 1467]
Ans. 0.1 to 1 µM

Qu. Return reported GI50; argument: Cc1cn2cc(-c3ccc4c(=O)n([C@H]5CCNC5)cc(C)c4c3)cc(F)c2n1 [Compound 451]
Ans. 1 to 10 µM

Qu. Return reported GI50; argument: Cn1cc2nc(-c3cc(F)c4c(=O)n(C5CCNC6(CC6)C5)ncc4c3)ccc2n1 (stereo not drawn) [Compound 563]
Ans. 0.1 to 1 µM

Qu. Return reported GI50; argument: CNC(=O)c1cc(-c2ccc3c(=O)n(C4CCNCC4)ccc3c2)nn2cc(C)nc12 [Compound 518]
Ans. 1 to 10 µM

Qu. Return reported GI50; argument: Cn1cc2cc(-c3ncc4c(=O)n(C5CCNC5)ccc4n3)c(O)c(F)c2n1 (stereo not drawn) [Compound 1223]
Ans. 1 to 10 µM

Qu. Return reported GI50; argument: Cc1c(O)c(-c2ncc3c(=O)n(C4CCNC4)ccc3n2)cc2cn(C)nc12 (stereo in doubt) [Compound 1440]
Ans. 0.1 to 1 µM
